# Tested on: NCI-H460
# method-summary: Proliferation assay (Alamar Blue / XTT), NCI-H460
# Assay type: cell-based
# conditions: Homo sapiens; cell line NCI-H460 (lung)
Recorded EC50, one value per entry.
parameter: EC50 (nM)

- smi: "CCCCNC(=O)Nc1cnc2ccc(-c3cc(C)c(O)c(C)c3)cc2n1"
  measured: 38
- smi: "Cc1cc(-c2ccc3ncc(NC(=O)Nc4cccs4)nc3c2)cc(C)c1O"
  measured: 714
- smi: "Cc1cc(-c2ccc3ncc(NC(=O)NC(C)C)nc3c2)cc(C)c1O"
  measured: 47
- smi: "Cc1cc(-c2ccc3ncc(NC(=S)NC(C)C)nc3c2)cc(C)c1O"
  measured: 60
- smi: "Cc1cc(-c2ccc3ncc(NC(=O)NC(C)(C)C)nc3c2)cc(C)c1O"
  measured: 238
- smi: "CCCCNC(=S)Nc1cnc2ccc(-c3cc(C)c(O)c(C)c3)cc2n1"
  measured: 30
- smi: "Cc1cc(-c2ccc3ncc(NC(=O)NC4CCCCC4)nc3c2)cc(C)c1O"
  measured: 85

---

- smi: "Cc1cc(-c2ccc3ncc(NC(=S)NC(C)C)nc3c2)cc(C)c1O"
  melting point: "269 to 271 °C"
- smi: "Cc1cc(-c2ccc3ncc(NC(=O)Nc4ccc5ccccc5c4)nc3c2)cc(C)c1O"
  melting point: "> 300 °C"
- smi: "Cc1cc(-c2ccc3ncc(NC(=O)NC(C)(C)CC(C)(C)C)nc3c2)cc(C)c1O"
  melting point: "> 300 °C"
- smi: "CNC(=O)Nc1cnc2ccc(-c3cc(C)c(O)c(C)c3)cc2n1"
  melting point: "251 °C"
- smi: "Cc1cc(-c2ccc3ncc(NC(=S)NC4CCC4)nc3c2)cc(C)c1O"
  melting point: "285 to 286 °C"
- smi: "Oc1c(Cl)cc(-c2ccc3ncc(NC(=S)NC4CC4)nc3c2)cc1Cl"
  melting point: "260 to 262 °C"
- smi: "CC(C)NC(=O)Nc1cnc2ccc(-c3ccc(N)cc3)cc2n1"
  melting point: "> 300 °C"
- smi: "CC(C)NC(=S)Nc1cnc2ccc(-c3cc(Cl)c(O)c(Cl)c3)cc2n1"
  melting point: "276 to 278 °C"
- smi: "CCNC(=O)Nc1cnc2ccc(-c3cc(C)c(O)c(C)c3)cc2n1"
  melting point: "257 °C"

---

Recorded EC50, one value per entry.
# System: MESSA
# method-summary: XTT proliferation test, MESSA
# Type: cell-based
# conditions: Homo sapiens, MES-SA, cell line MESSA (uterus), non-resistant

- smi: "CCNC(=S)Nc1cnc2ccc(-c3cc(C)c(O)c(C)c3)cc2n1"
  EC50 [nM]: 141
- smi: "Cc1cc(-c2ccc3ncc(NC(=O)NC(C)C)nc3c2)cc(C)c1O"
  EC50 [nM]: 152
- smi: "Cc1cc(-c2ccc3ncc(NC(=S)NC4CC4)nc3c2)cc(C)c1O"
  EC50 [nM]: 48

---

Recorded EC50, one value per entry.
# Tested on: PC-3
# method-summary: Proliferation assay (Alamar Blue / XTT), PC-3
# Format: cell-based
# conditions: Homo sapiens, cell line PC3 (prostate)

- smi: "Oc1c(Cl)cc(-c2ccc3ncc(NC(=S)NCc4ccccc4)nc3c2)cc1Cl"
  EC50: "821 nM"
- smi: "Oc1c(Cl)cc(-c2ccc3ncc(NC(=S)NCCc4ccccc4)nc3c2)cc1Cl"
  EC50: "538 nM"
- smi: "CC(C)NC(=O)Nc1cnc2ccc(-c3ccc(N)cc3)cc2n1"
  EC50: "453 nM"
- smi: "CCCCNC(=O)Nc1cnc2ccc(-c3cc(Cl)c(O)c(Cl)c3)cc2n1"
  EC50: "880 nM"

---

Recorded melting point, one value per entry.

- smi: "Cc1cc(-c2ccc3ncc(NC(=O)Nc4cccnc4)nc3c2)cc(C)c1O"
  melting point: "298 to 300 °C"
- smi: "Cc1cc(-c2ccc3ncc(NC(=O)NC(C)C)nc3c2)cc(C)c1O"
  melting point: "280 to 283 °C"
- smi: "Oc1c(Cl)cc(-c2ccc3ncc(NC(=S)NC4CCCCCCC4)nc3c2)cc1Cl"
  melting point: "288 to 289 °C"
- smi: "CCCCCCNC(=O)Nc1cnc2ccc(-c3cc(C)c(O)c(C)c3)cc2n1"
  melting point: "272 to 273 °C"
- smi: "CCNC(=S)Nc1cnc2ccc(-c3cc(Cl)c(O)c(Cl)c3)cc2n1"
  melting point: "237 to 238 °C"
- smi: "CC(C)(C)NC(=O)Nc1cnc2ccc(-c3cc(Cl)c(O)c(Cl)c3)cc2n1"
  melting point: "292 to 295 °C"

Cited source: patent US8394801B2
